The reader will find reported melting point values listed item by item below.

Some compounds with recorded melting point:
> print(dat)
                                   compound     test.value
1  CCN(CC)CCC(=O)C1Nc2cnccc2N(C)n2cccc21 (stereo not given)  170 to 172 °C
2   Nc1ccc2ncc(C(=O)NCc3ccc(Cl)cc3)c(O)c2c1       > 225 °C
3  Cc1oc(-c2ccc(C(F)(F)F)cc2)nc1COc1ccc(CN(O)C(=O)NN)cc1    94 to 95 °C
4  COCOc1c(N=Nc2ccc(OC)cc2)cc(OC)cc1C(C)(C)C  102 to 103 °C

Determine its reported melting point: `CC(C)(c1ccc2c(=O)c3ccccc3sc2c1)[N+](=O)[O-]`
131 to 133 °C

---

PARAMETER: melting point

Some compounds with recorded melting point:
> print(dat)
                                   compound       test.value
1                  C=CCOC(=O)COc1ccc(CO)cc1  33.5 to 34.5 °C
2  CCCCCCCCOc1cc2cc(CO)c(CO)c(-c3ccnc(NN)c3)c2cc1OC     98 to 102 °C
3               CCCCCOc1ccc2c(c1)C=C(CN)CO2           126 °C
4  CC1OC(=O)C(c2ccccc2)OC1=O (stereo unspecified)    153 to 156 °C
5      OCC1CCC(CBr)CC1 (stereo unspecified)    146 to 149 °C

Determine its reported melting point: `COC(=O)CCCCc1cc2nc(Cl)ccc2n1S(=O)(=O)c1cc(C)cc(C)c1`
126 °C

Determine its reported melting point: `O=C(O)Cc1ccc(Br)cc1[N+](=O)[O-]`
166 to 168 °C

Determine its reported melting point: `Cc1c(Oc2ncc(C(F)(F)F)cc2Cl)nn(C(=O)NC(C)C)c1C`
78 to 80 °C

---

The reader will find reported melting point values listed item by item below.

> print(dat)
                                   molecule     test.value
1   O=C(Nc1ccc(Cl)cc1[N+](=O)[O-])NC1CCCCC1  115 to 116 °C
2  Cc1cccc(C)c1OCC(=O)NC(Cc1ccccc1)C(O)CC(N)Cc1ccccc1 (centres undefined)         131 °C

Determine its reported melting point: `Cc1c(CC(=O)O)c2cc(OCc3ccc4ccccc4c3)ccc2n1Cc1ccc(Cl)cc1`
168 to 170 °C

Determine its reported melting point: `CC(=O)c1ccc(-c2ccc(F)cc2)c(O)c1`
152 to 154 °C

Determine its reported melting point: `COc1ccc(C(=O)N2CCc3nnc(NN)cc3C2)cc1`
169 to 172 °C

Determine its reported melting point: `COc1ccc(CC(=O)Nc2cc(-c3c(-c4cccc(C)c4)nc4cccnn34)ccn2)cc1`
213 to 214 °C

Determine its reported melting point: CC1OC(n2cnc(C(N)=O)c2CC#N)C(O)C1O (centres undefined)
173 to 174 °C

Determine its reported melting point: `CC(C)(C)[C@H]1CC[C@H](N(Cc2ccc(C(=O)NC[C@H](O)C(=O)O)cc2)C(=O)Nc2cc(C(F)(F)F)cc(C(F)(F)F)c2)CC1`
185 to 187 °C

Determine its reported melting point: `CCCc1ccc2nc(SCC)c(S(N)(=O)=O)n2n1`
176 to 177 °C
